Tested on: U-251
Assay: NCI tumour cell line growth inhibition, 48 h
Calls of active or inactive are those of the source. Cut-off read from the data, not from the text of the source: active = GI50 up to about 1.1 µM and inactive = higher.
ENDPOINT LABEL: GI50

Incoming: What does the record list as GI50 for O=c1oc2ccccc2c(O)c1C(C/C(CCN1CCCC1)=N\Nc1ccccc1)c1ccccc1 (stereo not given) ?
Outgoing: 78.2 µM (inactive)

Incoming: For the compound O=S(=O)(SCCCCSS(=O)(=O)c1ccc(Cl)cc1)c1ccc(Cl)cc1 , what GI50 is on record?
Outgoing: 8.36 µM (inactive)

Incoming: Returns the measured GI50 for the input compound. Input: COc1ccc(C(=O)NCCC2=CCCCC2)cc1
Outgoing: > 100 µM (inactive)

Incoming: // query GI50 value for entry C=CCNC(=O)NCCCC(NC(C)=O)C(=O)NCc1ccccc1 (stereo not given)
Outgoing: > 100 µM (inactive)

Incoming: What does the data say about its GI50? Entry: CN1CC[C@@]2(c3cccc(O)c3)CC(=O)/C(=C/c3ccc(Cl)c(Cl)c3)[C@H]1C2
Outgoing: 1.38 µM (inactive)

Data origin, for the record: ChEMBL document CHEMBL1201862
